test description: chemical genetic growth profiling, strain panel (AID 1159580);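 note: tested at 20 µM; growth read once vehicle control cultures reached saturation at 30 °C; 1 = growth at the plate median or of vehicle wells; lower values mean less growth of the strain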
measurement parameters: S. cerevisiae deletion strains, growth OD, locus YMR231W, strain pep5, hits give low values
The campaign covered roughly 5,500 compounds. About 2,000 (36%) were called active. Another 18% or so got no clear call; they are omitted. The list shows a part of the results.
# reported normalized growth; entries follow
Give the value as a plain number.

In the examples that follow, each entry is paired with its recorded normalized growth.
CC(=O)O[C@H]1C[C@@H](OC(C)=O)C(C)(C)C2CC(=O)[C@]3(C)C(CC[C@@]4(C)[C@H](c5ccoc5)OC(=O)[C@H]5O[C@]543)[C@]21C (some centres undefined): 0.978
NS(=O)(=O)c1cc2c(cc1Cl)NC(C1CC3C=CC1C3)NS2(=O)=O (centres undefined): 0.992
CCCCC[C@H](CC(=O)NO)C(=O)N[C@H](C(=O)N1CCC[C@H]1CO)C(C)C: 1.01

Consider now this further compound.
Reported normalized growth, compound `CNC(=O)Oc1ccc2c(c1)[C@]1(C)CCN(C)[C@@H]1N2C` : ____
1

* * *

# reported normalized growth; entries follow
test description: chemical genetic growth profiling, strain panel (AID 1159580);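 note: tested at 20 µM; growth read once vehicle control cultures reached saturation at 30 °C; 1 = growth at the plate median or of vehicle wells; lower values mean less growth of the strain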
measurement parameters: S. cerevisiae deletion strains, growth OD, locus YLR357W, strain rsc2, hits give low values
In all, about 5,500 compounds went through this assay and about 2,000 (36%) were called active. Another 18% or so got no clear call; they are omitted. Some of the results follow.
Give the value as a plain number.

In the examples that follow, each entry is paired with its recorded normalized growth.
C=Cc1c(C)c2[n-]c1=Cc1[n-]c(c(CC)c1C)C=c1[n-]c3c(c1C)C(=O)C(C(=O)[O-])C=3c1[n-]c(c(C)c1CCC(=O)[O-])C=2.[Cu] (configuration not stated): 1.08
CCC(=O)Nc1ccc(Cl)c(Cl)c1: 0.952
COc1c2ccoc2nc2c(OC)c(OCC(O)C(C)(C)O)ccc12 (configuration not stated): 1.06
CCCCCC1C(=O)CCC1CC(=O)OC (configuration not stated): 0.947
CC(=O)O[C@H]1C[C@@H](OC(C)=O)C(C)(C)C2CC(=O)[C@]3(C)C(CC[C@@]4(C)[C@H](c5ccoc5)OC(=O)[C@H]5O[C@]543)[C@]21C (some centres not stated): 0.989
CCCCCC1C(=O)CCC1CC(=O)O (configuration not stated): 0.994

Reported normalized growth, compound `COc1cc(C)c(C(=O)Oc2cc(C)c(C(=O)O)c(O)c2C)c(OC)c1C` : ____
0.94

Same for `NCCOB(c1ccccc1)c1ccccc1`
0.629

Same for `C[C@@H](N)[C@@H](O)c1ccccc1`
0.988

Same for CC1(C)C(O)CC(O)C2(C)C1CC(O)C1(C)C2CCC2(C)C(c3ccoc3)OC(=O)C3OC321 (configuration not stated)
0.995

Same for `CN1CCN(C2=Nc3ccccc3Oc3ccc(Cl)cc32)CC1`
0.964

Same for `COc1c2ccccc2nc2occc12`
1.04

Same for `CN(C)N=Nc1nc[nH]c1C(N)=O`
0.965

Same for CCN(CC)C(C)CN1c2ccccc2Sc2ccccc21 (configuration not stated)
1.01

Same for C[C@]12C=CC(=O)C=C1CCC1C3C[C@@H](O)[C@](O)(C(=O)CO)[C@@]3(C)C[C@H](O)[C@@]12F (some centres not stated)
0.941

Same for `NNCCc1ccccc1`
0.969

Same for `CN(C(=O)CN(CCO)CC(=O)N(C)C(C)(C)Cc1ccccc1)C(C)(C)Cc1ccccc1`
1.01

Same for `COc1cc([C@@H]2c3cc4c(cc3[C@H](OC(C)=O)[C@H]3COC(=O)[C@@H]23)OCO4)cc(OC)c1OC`
0.973

Same for `CO[C@]12C[C@@H](COC(=O)c3cncc(Br)c3)CN(C)[C@@H]1Cc1cn(C)c3cccc2c13`
0.969

Same for `S=P(N1CC1)(N1CC1)N1CC1`
1.03

Same for CC(CN(C)C)CN1c2ccccc2Sc2ccccc21 (configuration not stated)
1.04

Same for `C[C@H](N)[C@H](O)c1cccc(O)c1`
0.993
